B1: KRT13 (parent)
chain: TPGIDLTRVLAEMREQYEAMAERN

- Variants of: B1
- experiment-notes: protein stability index of a GFP-peptide fusion (GPS, HEK-293T) (PSI 1-6); higher = more stable;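 also: lentivirally expressed fusions sorted by FACS into six bins by GFP to DsRed ratio, PSI derived from sequencing read proportions per bin multiplied by bin number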
- measurement-setup: c terminus: a fixed tail appended
Everything with protein stability index lower than 4 is label 0; everything else, including exactly 4, is label 1.

polymer-sequence	group
TPGIDLARVLAEMREQYEAMAERN [T7A]	label 0
TPGIDLGRVLAEMREQYEAMAERN [T7G]	label 0
TPGIWLTRVLAEMREQYEAMAERN [D5W]	label 0
TPGIDLTFVLAEMREQYEAMAERN [R8F]	label 0
TPGISLTRVLAEMREQYEAMAERN [D5S]	label 0
TPGIDLTRVLAEMREQYQAMAERN [E18Q]	label 0
TPGIALTRVLAEMREQYEAMAERN [D5A]	label 1
TPGIDLTRVLAEMRVQYEAMAERN [E15V]	label 0
TPGIDLTRVLAEMREQYEAMAHRN [E22H]	label 0
TPGIDLTRVMAEMREQYEAMAERN [L10M]	label 1
TPGIDLTRVLAEMREQYEAIAERN [M20I]	label 0
TPGIDLTRVLAEMREQYEAMAELN [R23L]	label 0
TPGIDLTRVRAEMREQYEAMAERN [L10R]	label 1
TPGIDLTRVLAEMREQYEAMAERE [N24E]	label 1
